Can you tell me log fold change Tl+ flux for the items I'm about to list?
# Tested on: F380Y/beta1
# Assay notes: modulators of BK channel variants, profiling panel, selectivity assay, cell-based, U2OS BacMam, thallium flux, beta subunits (AID 1259406);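 note: initial slope of Thallos dye fluorescence rise after thallium is added; log ratio against the mean of 0.3% DMSO vehicle wells on the same plate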
# Experimental setup: at 30 µM
Form field (numeric): enter value without unit.

Lab note: CC(=O)Nc1nnc(S(N)(=O)=O)s1 gave log fold change Tl+ flux of 0.0405

Lab note: CC1=C(C(=O)O)N2C(=O)[C@@H](NC(=O)[C@H](N)c3ccccc3)[C@H]2SC1 gave log fold change Tl+ flux of -0.0395

Lab note: NNCCc1ccccc1 gave log fold change Tl+ flux of -0.0168

Lab note: CCN(Cc1ccncc1)C(=O)C(CO)c1ccccc1 (stereo not drawn) gave log fold change Tl+ flux of -0.00694

Lab note: CC(COc1ccccc1)N(CCCl)Cc1ccccc1 (stereo not drawn) gave log fold change Tl+ flux of -0.00151

Lab note: O=c1[nH]cc(F)c(=O)[nH]1 gave log fold change Tl+ flux of 0.0119

Lab note: CC(C)NCC(O)c1cc(O)cc(O)c1 (stereo not drawn) gave log fold change Tl+ flux of 0.0393

Lab note: CCCNCC(O)COc1ccccc1C(=O)CCc1ccccc1 (stereo not drawn) gave log fold change Tl+ flux of 0.0626

Lab note: CC(C)C(=O)Nc1ccc([N+](=O)[O-])c(C(F)(F)F)c1 gave log fold change Tl+ flux of 0.104

Lab note: Oc1c(Cl)cc(Cl)c2cccnc12 gave log fold change Tl+ flux of 0.135

Lab note: CC1(C)O[C@@H]2[C@@H](CO[C@@]3(COS(N)(=O)=O)OC(C)(C)O[C@@H]23)O1 gave log fold change Tl+ flux of 0.0196

Lab note: O=S(=O)(O)CCS gave log fold change Tl+ flux of 0.0507

Lab note: CN(C)c1ccc(O)c2c1C[C@H]1C[C@H]3[C@H](N(C)C)C(=O)C(C(N)=O)=C(O)[C@@]3(O)C(=O)C1=C2O gave log fold change Tl+ flux of 0.00506

Lab note: Cc1cccc(Nc2ccncc2S(=O)(=O)NC(=O)NC(C)C)c1 gave log fold change Tl+ flux of 0.0627

Lab note: CN=C(NC#N)NCCSCc1nc[nH]c1C gave log fold change Tl+ flux of 0.0381

Lab note: C/C=C/C(=O)N(CC)c1ccccc1C gave log fold change Tl+ flux of -0.0381

Lab note: CCN(CC)CCOC(=O)C1(C2CCCCC2)CCCCC1 gave log fold change Tl+ flux of -0.0697

Lab note: CC(=O)OCC(=O)[C@@]1(O)CC[C@H]2[C@@H]3CCC4=CC(=O)C=C[C@]4(C)[C@H]3[C@@H](O)C[C@@]21C gave log fold change Tl+ flux of 0.0202

Lab note: O=C1CCC(N2C(=O)c3ccccc3C2=O)C(=O)N1 (stereo not drawn) gave log fold change Tl+ flux of -0.0788

Lab note: Cc1cccc(CN2CCN(C(c3ccccc3)c3ccc(Cl)cc3)CC2)c1 (stereo not drawn) gave log fold change Tl+ flux of -0.208

Lab note: c1ccc2[nH]c(-c3cscn3)nc2c1 gave log fold change Tl+ flux of -0.00469

Lab note: O=C1[C@H](CC[C@H](O)c2ccc(F)cc2)[C@@H](c2ccc(O)cc2)N1c1ccc(F)cc1 gave log fold change Tl+ flux of 0.33

Lab note: Cc1noc(NS(=O)(=O)c2ccc(N)cc2)c1C gave log fold change Tl+ flux of -0.0556
